Target: human GLP-1 receptor (human, UniProt P43220 24-463)
Test: cell-based or functional assay
Numbered stars: 1 amine (or outer) side, 2 acyl side, 3 side chain; on linkers, the order of the positions; unused ones are H or OH. Square brackets hold non-standard residues; d marks the D form. Side chains are listed from the residue outwards. Ends that are not written are not given here. * marks the point of attachment. C20 diacid = O=C(O)CCCCCCCCCCCCCCCCCCC(=O)*; γGlu = O=C(O)[C@H](CCC(=O)[*:2])N[*:1]; AEEA = NCCOCCOCC(=O)O; Aib = CC(C)(N)C(=O)O
Endpoint Label: hGLP1R GTPgS % Top
Answer format reminder: number followed by unit.

// known answers, use as guide
[
  {
    "Binder": "XXEGTFTSDYSIXLDXKAQXAFIEXLIAGGPSSGAPPPS (D-Tyr1, Aib2, αMeL13, Orn16, K17 conjugated to (2-[2-(2-Amino-ethoxy)-ethoxy]-acetyl)2-(γ-Glu)-CO-(CH2)18-CO2H, Aib20, αMeY25, C-terminal amide (NH2)) [Example 366]",
    "Endpoint Label": "hGLP1R GTPgS % Top",
    "Observed Measurement": "67.6%"
  },
  {
    "Binder": "XXEGTFTSDYSIXLDXKAQXEFIEYLIAGGPSSG (D-Tyr1, Aib2, αMeL13, Orn16, K17 conjugated to (2-[2-(2-Amino-ethoxy)-ethoxy]-acetyl)2-(γ-Glu)-CO-(CH2)18-CO2H, Aib20, C-terminal amide (NH2)) [Example 370]",
    "Endpoint Label": "hGLP1R GTPgS % Top",
    "Observed Measurement": "63.7%"
  },
  {
    "Binder": "XXEGTFTSDYSIXLDKKAQXAFIEXLIAGGPSSGAPPPS (D-Tyr1, Aib2, αMeL13, K17 conjugated to (2-[2-(2-Amino-ethoxy)-ethoxy]-acetyl)2-(γ-Glu)-CO-(CH2)16-CO2H, Aib20, αMeY25, C-terminal amide (NH2)) [Example 376]",
    "Endpoint Label": "hGLP1R GTPgS % Top",
    "Observed Measurement": "72.6%"
  },
  {
    "Binder": "YXEGTXTSDVSIXLDXKAQXEFIXXLIEGGPSSGAPPPS (Aib2, αMeF(2F)6, αMeL13, Orn16, K17 conjugated to (2-[2-(2-Amino-ethoxy)-ethoxy]-acetyl)2-(γ-Glu)-CO-(CH2)16-CO2H, Aib20, D-Glu24, αMeY25, C-terminal amide (NH2)) [Example 5]",
    "Endpoint Label": "hGLP1R GTPgS % Top",
    "Observed Measurement": "91.3%"
  },
  {
    "Binder": "YXEGTFTSDYSIXLDEKAQXAFIEYLIAGGPSSGAPPPS (Aib2, αMeL13, K17 conjugated to (2-[2-(2-Amino-ethoxy)-ethoxy]-acetyl)2-(γ-Glu)-CO-(CH2)18-CO2H, Aib20, C-terminal amide (NH2)) [Example 332]",
    "Endpoint Label": "hGLP1R GTPgS % Top",
    "Observed Measurement": "81.5%"
  },
  {
    "Binder": "XXEGTFTSDYSIXLDXKAQXAFIXYLIAGGPSSGAPPPS (D-Tyr1, Aib2, αMeL13, Orn16, K17 conjugated to (2-[2-(2-Amino-ethoxy)-ethoxy]-acetyl)2-(γ-Glu)-CO-(CH2)18-CO2H, Aib20, D-Glu24, C-terminal amide (NH2)) [Example 291]",
    "Endpoint Label": "hGLP1R GTPgS % Top",
    "Observed Measurement": "65%"
  }
]

Q: Answer with the recorded hGLP1R GTPgS % Top for the binder listed here: XXEGTFTSDYSIXLDKKAQXAFIEYLIAGGPSSGAPPPS (not fully specified; D-Tyr1, Aib2, αMeL13, K17 conjugated to (2-[2-(2-Amino-ethoxy)-ethoxy]-acetyl)2-(γ-Glu)-CO-(CH2)18-CO2H, Aib20, C-terminal amide (NH2)) [Example 340]
Result: 67.4%

Q: Answer with the recorded hGLP1R GTPgS % Top for the binder listed here: XXEGTFTSDYSIXLDKKAQXEFIEXLIAGGPSSGAPPPS (D-Tyr1, Aib2, αMeL13, K17 conjugated to (2-[2-(2-Amino-ethoxy)-ethoxy]-acetyl)2-(γ-Glu)-CO-(CH2)16-CO2H, Aib20, αMeY25, C-terminal amide (NH2)) [Example 374]
Result: 67.1%

Q: Answer with the recorded hGLP1R GTPgS % Top for the binder listed here: XXEGTFTSDYSIXLDKKAQXEFIEYLIAGGPSSGAPPPS (D-Tyr1, Aib2, αMeL13, K17 conjugated to (2-[2-(2-Amino-ethoxy)-ethoxy]-acetyl)2-(γ-Glu)-CO-(CH2)18-CO2H, Aib20, C-terminal amide (NH2)) [Example 290]
Result: 66.2%

Q: Answer with the recorded hGLP1R GTPgS % Top for the binder listed here: F[Aib]EGTFTSDYSILLDKK([AEEA-AEEA-γGlu-C20 diacid])AQ[Aib]AFIEYLIEGGPSSGAPPPS-NH2 [Example 326]
Result: 61.6%

Q: Answer with the recorded hGLP1R GTPgS % Top for the binder listed here: XXEGTFTSDYSIXLDXKAQXEFIEXLIAGGPSSGAPPPS (D-Tyr1, Aib2, αMeL13, Orn16, K17 conjugated to (2-[2-(2-Amino-ethoxy)-ethoxy]-acetyl)2-(γ-Glu)-CO-(CH2)18-CO2H, Aib20, αMeY25, C-terminal amide (NH2)) [Example 293]
Result: 70.6%

Q: Answer with the recorded hGLP1R GTPgS % Top for the binder listed here: XXEGTFTSDYSIXLDXKAQXEFVEYLIAGGPSSGAPPPS (D-Tyr1, Aib2, αMeL13, Orn16, K17 conjugated to (2-[2-(2-Amino-ethoxy)-ethoxy]-acetyl)2-(γ-Glu)-CO-(CH2)18-CO2H, Aib20, C-terminal amide (NH2)) [Example 359]
Result: 69.7%
